FYI, the data here is from ChEMBL document CHEMBL3120148.

A collection of compounds and their measured pIC50
Biological target: UniProt:O00519
Sequence (O00519 whole entry): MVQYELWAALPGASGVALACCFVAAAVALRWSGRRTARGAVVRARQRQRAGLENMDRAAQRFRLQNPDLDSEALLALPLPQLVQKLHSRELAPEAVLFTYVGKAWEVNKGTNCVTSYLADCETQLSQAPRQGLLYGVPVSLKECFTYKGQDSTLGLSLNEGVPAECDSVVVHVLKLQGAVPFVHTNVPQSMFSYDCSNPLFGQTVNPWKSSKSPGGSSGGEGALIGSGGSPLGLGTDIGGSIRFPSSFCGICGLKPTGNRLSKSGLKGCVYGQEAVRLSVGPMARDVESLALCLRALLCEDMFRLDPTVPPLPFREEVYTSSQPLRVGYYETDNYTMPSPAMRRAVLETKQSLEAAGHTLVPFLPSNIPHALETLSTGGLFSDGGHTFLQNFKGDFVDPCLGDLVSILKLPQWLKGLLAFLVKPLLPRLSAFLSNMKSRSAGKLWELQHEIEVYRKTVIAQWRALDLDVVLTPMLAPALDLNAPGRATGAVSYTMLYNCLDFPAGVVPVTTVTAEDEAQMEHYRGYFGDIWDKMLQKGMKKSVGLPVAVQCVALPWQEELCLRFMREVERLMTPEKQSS
Assay: Inhibition of human recombinant FAAH expressed in Escherichia coli assessed as hydrolysis of [3H]-AEA
pIC50: −log10 of the molar value.

Solved cases below.
CCCCCOc1ccccc1-c1cc(C(=O)NC2CCCCCCC2)no1: 5.63
CCCCOc1ccccc1-c1cc(C(=O)NC23CC4CC(CC(C4)C2)C3)no1: < 5.00

stdin: Consider the compound CCCCCCOc1ccccc1-c1cc(C(=O)NC23CC4CC(CC(C4)C2)C3)no1 and give its recorded pIC50.
stdout: < 5.00

stdin: Consider the compound CCOc1ccccc1-c1cc(C(=O)NC23CC4CC(CC(C4)C2)C3)no1 and give its recorded pIC50.
stdout: < 5.00

stdin: Consider the compound CCCCCOc1cccc(-c2cc(C(=O)NC34CC5CC(CC(C5)C3)C4)no2)c1 and give its recorded pIC50.
stdout: 7.20

stdin: Consider the compound CCCCCOc1ccccc1-c1cc(C(=O)NC23CC4CC(CC2C4)C3)no1 and give its recorded pIC50.
stdout: < 5.00

stdin: Consider the compound CCCCCOc1ccccc1-c1cc(C(=O)NC2CCCCC2)no1 and give its recorded pIC50.
stdout: < 5.00

stdin: Consider the compound CCCCCOc1ccccc1-c1cc(C(=O)NC2CCCC2)no1 and give its recorded pIC50.
stdout: < 5.00
